B1: library; numbered along this chain (parent)
chain: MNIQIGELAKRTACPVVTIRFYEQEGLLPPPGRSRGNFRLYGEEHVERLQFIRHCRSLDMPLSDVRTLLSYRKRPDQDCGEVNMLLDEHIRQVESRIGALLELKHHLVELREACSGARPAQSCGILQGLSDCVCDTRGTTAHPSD

variants of: B1; experiment: sfGFP reporter fluorescence (15 h) (µM FITC); higher = stronger transcriptional activation; settings: library round: Round 0; ligand: 30 µM Zn
measurement-label: sfGFP reporter fluorescence
Give the figure by itself; no unit, no explanation.

Query: Reported sfGFP reporter fluorescence for MNIQIGELAKRTACPVVTIRFYEQEGLLPPPGGSRGNFRLYGEEHVERLQFIRHCRSLDMPLSDVRTLLSYRKRPDQDCGEVNMLLDEHIRQVESRIGALLELKHHLVELREACSGARPAQSCGILQGLSDCVCDTRGTTAHPSD [R33G] : what is it?
Response: 0.0599

Query: What does the data say about its sfGFP reporter fluorescence? Entry: MNIQIGELAARTACPVVTIRFYEQEGLLPPPGRSRGNFRLYGEEHVERLQFIRHCRSLDMPLSDVRTLLSYRKRPDQDCGEVNMLLDEHIRQVESRIGALLELKHHLVELREACSGARPAQSCGILQGLSDCVCDTRGTTAHPSD [K10A]
Response: 0.567

Query: Returns the measured sfGFP reporter fluorescence for the input variant. Input: MNIQIGELAKRTACPVVTIRFYEQEGLLPPPGRSRGNFRLYGEEHVERLQFIRHCRSLDMPLSDVRTLLSYRKRPDQDCGEVNMLLDEHIRQVESRWGALLELKHHLVELREACSGARPAQSCGILQGLSDCVCDTRGTTAHPSD [I97W]
Response: 0.176

Query: Value lookup for sfGFP reporter fluorescence; key = MNIQIGELAKRTACPVVTIRFYEQEGLLPPPGRSRGNFRLYGEEHVERLQFIRHCRSLDMPLSDVRTLLSYRKRPDQDCGEVNMLLDEHIRQVESRIGALLELKHHLVELREACSGARPAQSCGIEQGLSDCVCDTRGTTAHPSD [L126E]
Response: 0.0557

Query: Could you tell me which sfGFP reporter fluorescence is on file for MNIQIGELAKRTACPVVTIRFYEQEGLLPPPGRSRGNFRLYGEEHVERLQFIRHCRSLDMPLSDVRTLLSYRKRPDQDCGEVNMLLDEVIRQVESRIGALLELKHHLVELREACSGARPAQSCGILQGLSDCVCDTRGTTAHPSD [H89V] ?
Response: 0.0568

Query: Given the variant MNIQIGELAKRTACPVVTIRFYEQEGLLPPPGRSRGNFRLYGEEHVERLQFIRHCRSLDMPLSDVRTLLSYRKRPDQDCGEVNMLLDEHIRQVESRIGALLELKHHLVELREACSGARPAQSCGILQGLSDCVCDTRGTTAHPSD [unchanged] , what is its reported sfGFP reporter fluorescence?
Response: 0.722

Query: Look up sfGFP reporter fluorescence: MNIQIGELAKRTACPVVTIRFYEQEGLLPPPGRSRGNFRLYGEEHVERLQFIRHCRSLDMPLSDVRTLLSYRKRPDQDCGEVNMLLDEHIRQVESRIGALLELKHHLVELAEACSGARPAQSCGILQGLSDCVCDTRGTTAHPSD [R111A]
Response: 1.17

Query: What measured sfGFP reporter fluorescence goes with MNIQIHELAKRTACPVVTIRFYEQEGLLPPPGRSRGNFRLYGEEHVERLQFIRHCRSLDMPLSDVRTLLSYRKRPDQDCGEVNMLLDEHIRQVESRIGALLELKHHLVELREACSGARPAQSCGILQGLSDCVCDTRGTTAHPSD [G6H] ?
Response: 0.0698

Query: Quick one: sfGFP reporter fluorescence of MNIQIGELAKRTACPVVTIRFYEQEGLLPPPGRSRGNFRLYGEEHVERLQFIRHCRSLDMPLSDVRTDLSYRKRPDQDCGEVNMLLDEHIRQVESRIGALLELKHHLVELREACSGARPAQSCGILQGLSDCVCDTRGTTAHPSD [L68D] ?
Response: 0.0636

Query: Request the reported sfGFP reporter fluorescence associated with MNIQIGELAKRTACPVVTIRFYEQEGPLPPPGRSRGNFRLYGEEHVERLQFIRHCRSLDMPLSDVRTLLSYRKRPDQDCGEVNMLLDEHIRQVESRIGALLELKHHLVELREACSGARPAQSCGILQGLSDCVCDTRGTTAHPSD [L27P]
Response: 0.0656

Query: Consider the variant MNIQIGELAKRTACPVVTIRFYEQEGLLPPPGRSRGNFRLYGEEHVERLQFIRHCRSLDMPLSDVRTLLSYRKRPDQDCGEVNMLLDEHIRQVESRIGALLELVHHLVELREACSGARPAQSCGILQGLSDCVCDTRGTTAHPSD [K104V] and give its measured sfGFP reporter fluorescence.
Response: 1.35
